testSystem: MAT2A homodimer (Homo sapiens)
Construct: inferred from Ni sepharose purification and imidazole elution
Sequence (P31153 whole entry): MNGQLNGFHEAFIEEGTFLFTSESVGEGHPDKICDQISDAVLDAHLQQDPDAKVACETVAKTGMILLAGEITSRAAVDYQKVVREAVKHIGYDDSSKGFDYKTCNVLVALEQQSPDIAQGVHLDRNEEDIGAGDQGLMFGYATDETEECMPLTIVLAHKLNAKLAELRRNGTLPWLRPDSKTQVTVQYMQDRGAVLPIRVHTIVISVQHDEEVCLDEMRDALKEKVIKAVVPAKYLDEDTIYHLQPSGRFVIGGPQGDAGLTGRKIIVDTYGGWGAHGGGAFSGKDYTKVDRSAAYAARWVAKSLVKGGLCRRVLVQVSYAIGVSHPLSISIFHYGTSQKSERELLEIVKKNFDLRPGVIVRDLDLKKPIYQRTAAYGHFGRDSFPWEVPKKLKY
measurementProtocol: Biochemical assay: inhibition of MAT2A (phosphate release, PiColorLock Gold)
experimentalConditions: MAT2A IC50 score; read-out: Enzyme Inhibition (Example 275)
Listed below: IC50 values for each entry.

Examples with answers:
compound=COc1ccc(-n2cc3cnc(NCC(F)(F)F)nc3c(-c3ccc(C(F)(F)F)cc3)c2=O)cc1 reportedmeasurement="100 to 1000 nM"
compound=Cn1cc2cc(-n3cc4cnc(NCC(F)(F)F)nc4c(-c4ccc(Br)cc4)c3=O)ccc2n1 reportedmeasurement="< 100 nM"
compound=CCOc1ccc2cn(-c3ccc4nn(C)cc4c3)c(=O)c(-c3ccc(C(F)(F)F)nc3)c2n1 reportedmeasurement="< 100 nM"
compound=Cn1cc2cc(-n3cc4ccc(OCC(F)(F)F)nc4c(-c4ccc(OC(F)F)nc4)c3=O)ccc2n1 reportedmeasurement="< 100 nM"
compound=Cn1cc2cc(-n3cc4cnc(NCC(F)(F)F)nc4c(-c4ccc(Cl)cc4)c3=O)ccc2n1 reportedmeasurement="< 100 nM"

Given the compound O=C1N(c2cnoc2)Cc2cnc(NCC3CC3)nc2C12CCN(Cc1n[nH]cc1Cl)C2 (centres unmarked) , what is its reported IC50?
1000 to 10000 nM

Given the compound `Cn1cc(-n2cc3cnc(NCC(F)(F)F)nc3c(-c3ccc(Cl)cc3)c2=O)ccc1=O` , what is its reported IC50?
100 to 1000 nM

Given the compound `CCOc1cnc2cn(-c3ccc4nn(C)cc4c3)c(=O)c(-c3ccc(OC)cc3)c2n1` , what is its reported IC50?
< 100 nM
